Tested on: DU-145 prostate
TEST_NAME: NCI-60 one-dose screen, 48 h
EXPERIMENTAL_CONTEXT: 10 µM
The panel holds about 83,000 compounds, 20% with a hit somewhere; the sample as a whole holds those more often. Activity calls are given as the source filed them. Rule for the calls: active = growth percent below 10; inactive = the rest.
Possible outcomes: active, inactive

{"columns": ["MOLECULE", "CATEGORY_LABEL"],
 "data": [
  ["COc1cccc(Sc2ccc([N+](=O)[O-])c3no[n+]([O-])c23)c1", "inactive"],
  ["COc1cc2cc(OC(C)=O)c3cc4c(cc3c2c(OC)c1OC)OCO4", "inactive"],
  ["CO[C@H]1C[C@@H]2CC[C@@H](C)[C@@](O)(O2)C(=O)C(=O)N2CCCC[C@H]2C(=O)O[C@H]([C@H](C)C[C@@H]2CC[C@@H](O)[C@H](OC)C2)CC(=O)[C@H](C)C=C(C)[C@@H](O)[C@@H](OC)C(=O)[C@H](C)C[C@H](C)/C=C/C=C/C=C1C", "inactive"],
  ["O=C(O)C(Cc1ccccc1)C(=O)O", "inactive"],
  ["c1ccc(/C(=N\\N=C(/c2ccccc2)c2cccs2)c2cccs2)cc1", "inactive"],
  ["O=C1OC[C@H]2[C@H](c3ccc(O)c(O)c3)c3cc(O)c(O)cc3C[C@H]12", "inactive"],
  ["O=C1N(C[P+](c2ccccc2)(c2ccccc2)c2ccccc2)CCCN1C[P+](c1ccccc1)(c1ccccc1)c1ccccc1", "inactive"],
  ["COCCCC/C(=N\\OCCN)c1ccc(C(F)(F)F)cc1", "inactive"],
  ["COc1ccccc1NC(=O)c1cc2cc(Br)ccc2cc1O", "inactive"],
  ["CC(C)CCOC(=O)c1ccccc1", "inactive"],
  ["COc1ccc(C(=O)C(Br)C(Br)C(=O)O)cc1 (centres undefined)", "inactive"],
  ["C[N+](C)=c1ccc2nc3c(cc(Nc4ccccc4)c4ccccc43)oc-2c1", "inactive"],
  ["CC(C)=C(NC(=O)c1ccccc1)C(=O)O", "inactive"],
  ["CCOc1ccc(Br)cc1/C=N\\N=C\\c1cc(Br)ccc1OCC", "inactive"],
  ["NC(=O)NC(=O)c1ccc(Cl)cc1", "inactive"],
  ["C/C(=N\\NC(=O)c1ccccc1N)c1ccccc1O", "inactive"],
  ["N#CCc1ccc([N+](=O)[O-])cc1", "inactive"],
  ["CN(C)c1ccc2oc(=O)c3ccccc3c2c1", "inactive"],
  ["O=C1C[C@H](c2ccccc2)[C@H](c2ccccc2)C1", "inactive"],
  ["O=C(Cc1ccccc1)Cc1ccccc1", "inactive"],
  ["CN(C)c1nc2c([nH]1)c(=O)n(C)c(=O)n2C", "inactive"],
  ["COc1cc2c(cc1OC)[C@H](C(=O)O)[C@@H](c1ccc(OC(C)C)c(OC)c1)N(C)C2=O", "inactive"],
  ["COc1cc(C2c3cc4c(cc3C3OC(=O)C2C3CO)OCO4)cc(OC)c1OC (centres undefined)", "active"],
  ["c1ccc(CN2COc3c(ccc4c3OCN(Cc3ccccc3)C4)C2)cc1", "inactive"],
  ["CNC(=S)NC(C)(C)C", "inactive"],
  ["CCC(C)(O)c1ccc(C)cc1 (centres undefined)", "inactive"],
  ["OCc1ccc(-c2ccc(-c3ccc(CO)s3)o2)s1", "active"],
  ["COc1nc(N)nc2c1ncn2C1OC(CO)CC1O (centres undefined)", "inactive"],
  ["c1ccc(Sc2ccccc2)cc1", "inactive"],
  ["CCN(CC)C(=O)/C=C(/C)c1ccccc1", "inactive"],
  ["Nc1nc(OCc2ccccc2)c2[nH]cnc2n1", "inactive"],
  ["Nc1ccccc1SC(CC(=O)c1ccccc1)c1c(Cl)cccc1Cl (centres undefined)", "inactive"],
  ["O=[N+]([O-])c1cccc(C(F)(F)F)c1", "inactive"],
  ["Cc1c(O)cccc1O", "inactive"],
  ["Cc1cc(Cc2cc(C)c(N)cc2N)c(N)cc1N", "inactive"],
  ["CCC/C=C(/C(C)=O)C(=O)OCC", "inactive"],
  ["N#CC1(Nc2ccc3c4c(cccc24)CC3)CCCCC1", "inactive"],
  ["O=C(O)CCC(NC(=O)OCc1ccccc1)C(=O)O (centres undefined)", "inactive"],
  ["O=C(O)/C=C/c1ccc2c(c1)CCC2", "inactive"],
  ["O=c1[nH]c(O)c(/C=C2/C=Nc3ccccc32)[nH]1", "inactive"],
  ["OCCN1CCOCC1", "inactive"],
  ["O=[N+]([O-])c1cccc(N=Nc2ccc(O)cc2O)c1", "inactive"],
  ["Cc1ccc(N)cc1[N+](=O)[O-]", "inactive"],
  ["OC1OC(COC(c2ccccc2)(c2ccccc2)c2ccccc2)C(O)C(O)C1O (centres undefined)", "inactive"],
  ["C#Cc1cccc(NC(=O)c2ccc(Cl)cc2Cl)c1", "inactive"],
  ["CC1(C)/C(=C\\CO)C2CCC1C2 (centres undefined)", "inactive"],
  ["CN(C)C(=O)Oc1cccc([N+](C)(C)C)c1", "inactive"],
  ["CCCCC(=O)c1ccc(OC)cc1", "inactive"],
  ["COc1cc(C(=O)N/N=C/c2cccc([N+](=O)[O-])c2)cc(OC)c1OC", "inactive"]
]}

---

Tested on: UACC-257 melanoma
TEST_NAME: NCI-60 one-dose screen, 48 h
EXPERIMENTAL_CONTEXT: 10 µM
About 83,000 compounds went through this panel and 20% of them were active in at least one assay; those are over-represented in the sample as a whole. Calls of active or inactive are those of the source. How the source made its calls: active means growth percent below 10; inactive means the rest.
Possible outcomes: active, inactive

{"columns": ["COMPOUND", "CATEGORY_LABEL"],
 "data": [
  ["N#C/C(=C\\c1cc(O)c(O)c(O)c1)C(N)=O", "inactive"],
  ["CC1CC(O)CC(C)(C)C1 (stereo unspecified)", "inactive"],
  ["O=C(Nc1cccc(NC(=O)Nc2cc(C(F)(F)F)ccc2Cl)c1)Nc1cc(C(F)(F)F)ccc1Cl", "active"],
  ["COc1cc(C2c3cc4c(cc3C3OC(=O)C2C3CO)OCO4)cc(OC)c1OC (stereo unspecified)", "inactive"],
  ["COC(=O)c1cccnc1", "inactive"],
  ["C=CCNc1ccccc1", "inactive"],
  ["Cc1ncc(C#N)c(N)n1", "inactive"],
  ["CC1=NN(c2ccccc2)C(=O)/C1=C\\N1CC(=O)NC1=S", "inactive"],
  ["CCCC[P+](c1ccccc1)(c1ccccc1)c1ccccc1", "inactive"],
  ["COC(=O)c1ccc(C(C)C)cc1", "inactive"],
  ["CCOC(=O)CSc1c([N+](=O)[O-])ncn1C", "inactive"],
  ["CC1(C)Nc2cccc3c(N=Nc4ccc(N=Nc5ccccc5)c5ccccc45)ccc(c23)N1", "inactive"],
  ["CN(C)/N=C/c1ccccc1O", "inactive"],
  ["O=C(Cc1nc2ccc([N+](=O)[O-])cc2nc1CC(=O)c1cccnc1)c1cccnc1", "inactive"],
  ["CC1Cc2ccccc2O1 (stereo unspecified)", "inactive"],
  ["CC1(C(=O)O)NC(C(=O)O)Cc2c1[nH]c1ccccc21 (stereo unspecified)", "inactive"],
  ["CC1(C)/C(=C\\CO)C2CCC1C2 (stereo unspecified)", "inactive"],
  ["CC1(c2ccccc2)NC(=O)NC1=O (stereo unspecified)", "inactive"],
  ["CCN(CC)CCCC(C)Nc1ccnc(/C=C/c2ccc(Cl)cc2)c1 (stereo unspecified)", "active"],
  ["O=C(c1ccc(O)cc1)c1ccc(O)cc1", "inactive"],
  ["COc1cc2c(cc1O)CC[C@@H]1C2CC[C@@]2(C)C1CC[C@@H]2O (stereo partly specified)", "inactive"],
  ["CC(=O)/C(Cc1ccccc1)=N/O", "inactive"],
  ["COc1cc([C@@H]2c3cc4c(cc3[C@H](O)[C@H]3COC(=O)[C@H]23)OCO4)cc(OC)c1OC", "inactive"],
  ["O=C1NC(=O)C2C(=O)NC(=O)C1C21CCc2ccccc21 (stereo unspecified)", "inactive"],
  ["O=S(=O)(O)c1cc(O)c2c(N=Cc3ccccc3O)c(S(=O)(=O)O)ccc2c1", "inactive"],
  ["C#Cc1cccc(NC(=O)c2ccc(Cl)cc2Cl)c1", "inactive"]
]}

---

System: RPMI-8226 leukemia
TEST_NAME: NCI-60 one-dose screen, 48 h
EXPERIMENTAL_CONTEXT: 10 µM
Compounds without any hit were thinned out: in the full panel of roughly 83,000, 20% have a hit. Active and inactive are the calls of the source. Rule for the calls: active = growth percent below 10; inactive = the rest.
Possible outcomes: active, inactive

{"columns": ["COMPOUND", "CATEGORY_LABEL"],
 "data": [
  ["O=C1OC(c2ccc(F)cc2)CC1CN1CCOCC1 (stereo not drawn)", "inactive"],
  ["C/C(=C\\c1ccc([N+](=O)[O-])cc1)C(=O)O", "inactive"],
  ["Cc1cc(N)c(S(=O)(=O)O)c(N)c1", "inactive"],
  ["CC(C)OC(C(=O)O)c1ccccc1 (stereo not drawn)", "inactive"],
  ["CCOC(=O)c1ccc(Nc2sc(C(=O)c3cccc([N+](=O)[O-])c3)c(N)c2C#N)cc1", "active"],
  ["Cc1ncc(C#N)c(N)n1", "inactive"],
  ["COc1cccc(O)c1O", "inactive"],
  ["COC(=O)Nc1nc2ccc(C(=O)c3cccs3)cc2[nH]1", "inactive"],
  ["CSC[C@H](NC(=O)COc1cccc2cnccc12)C(=O)NC(Cc1ccccc1)C(O)C(=O)N1CSC[C@H]1C(=O)NC(C)(C)C (stereo partly drawn)", "inactive"],
  ["N#CC(=Nc1cccc(F)c1)C1=C(O)c2ccccc2C1=O", "inactive"],
  ["CC(=O)CC(=O)N(C)C", "inactive"],
  ["CCc1nn(Cc2ccccc2)c2nc(C)c(CCc3ccccc3)c(Cl)c12", "inactive"],
  ["NCC(=O)CCC(=O)O", "inactive"],
  ["O=[N+]([O-])c1cccc(N=Nc2ccc(O)cc2O)c1", "inactive"],
  ["CCOC(=O)C/C(C)=N\\O", "inactive"],
  ["CC(=O)c1ccc(C(C)(C)C)cc1", "inactive"],
  ["CN(C)c1nc2c([nH]1)c(=O)n(C)c(=O)n2C", "inactive"],
  ["CC1C(=O)c2ccccc2CC1C(=O)O (stereo not drawn)", "inactive"],
  ["CCOC(=O)CSc1c([N+](=O)[O-])ncn1C", "inactive"],
  ["c1ccc(Cc2ccccc2)cc1", "inactive"],
  ["c1ncc2[nH]cnc2n1", "inactive"],
  ["Cc1nc2ccccc2c(C(=O)O)c1O", "inactive"],
  ["C=CCNc1ccccc1", "inactive"],
  ["CC(CC(=O)c1ccccc1)c1ccccc1 (stereo not drawn)", "inactive"],
  ["Cc1ccccc1N=C(c1ccccc1)C1C(=O)c2ccccc2C1=O", "inactive"],
  ["c1csc(-c2cc(-c3cc(-c4cccs4)[nH]n3)n[nH]2)c1", "inactive"],
  ["CCCCC1C(=O)N(c2ccccc2)N(c2ccccc2)C1=O", "inactive"],
  ["CC(C)COC(=O)COC(=O)OCCOCCOC(=O)OCC(=O)OCC(C)C", "inactive"],
  ["O=C1C[C@H](c2ccccc2)[C@H](c2ccccc2)C1", "inactive"],
  ["CCOC(=O)Nc1cc2c(c(N)n1)N=C(c1ccccc1)CO2", "inactive"],
  ["Cc1ccc(Cl)cc1N1C(=O)CC(Sc2ccccc2N)C1=O (stereo not drawn)", "inactive"],
  ["CCc1ccc(/C(C#N)=C/C=C/c2ccccc2)cc1", "active"],
  ["O=C(N/N=C/c1ccccc1O)Nc1nn[nH]n1", "inactive"],
  ["O=C1C=CC(=O)N1c1ccc(I)cc1Cl", "inactive"],
  ["CN1C(=O)CN2CCc3ccccc3C2c2cc(Cl)ccc21 (stereo not drawn)", "inactive"],
  ["CC(C)=NNC(N)=S", "inactive"],
  ["CC1(C)S(=O)(=O)OCCOS1(=O)=O", "inactive"],
  ["O=C(/C=C/C(=O)c1ccccc1)c1ccccc1", "inactive"],
  ["C=CCNc1nnc(C)s1", "inactive"],
  ["C[C@]12CC[C@@H]3c4ccc(OCC(=O)O)cc4CC[C@H]3[C@@H]1CCC2=O", "inactive"],
  ["CC(C)CCCC(=O)O", "inactive"],
  ["CCOC(=O)C(C#N)Cc1ccccc1 (stereo not drawn)", "inactive"],
  ["COCCCNC(=O)c1nnn2c1nc(N)c1cc(Cl)ccc12", "inactive"],
  ["Cc1cc(C)c(N)c(S(=O)(=O)O)c1", "inactive"],
  ["N#CSc1cc(S(N)(=O)=O)ccc1N", "inactive"],
  ["CCOC(=O)C(CCC(C)C)C(=O)OCC", "inactive"],
  ["O=S(=O)(O)CC(O)CN1CCN(CCO)CC1 (stereo not drawn)", "inactive"],
  ["CC(=O)c1ccc(N=C(C#N)C2=C(O)c3ccccc3C2=O)cc1", "inactive"],
  ["CC1CCCC(CC(N)=O)CC1 (stereo not drawn)", "inactive"],
  ["COc1cc2c3cc1Oc1c(OC)c(OC)cc4c1C(Cc1ccc(O)c(c1)Oc1ccc(cc1)CC3N(C)CC2)N(C)CC4 (stereo not drawn)", "active"],
  ["c1ccc2c(N3CCCCC3)ncnc2c1", "inactive"],
  ["Sc1ccc(Nc2c3ccccc3nc3ccccc23)cc1", "inactive"],
  ["Nc1nc(N)c(N=Nc2ccc(C(=O)O)cc2)c(N)n1", "inactive"]
]}
